Test system: CP191
Assay: qHTS profiling for inhibitors of Plasmodium falciparum proliferation (AID 504749); note: nearly all actives have a fitted effect of over 60% in size; note: potency is the fitted concentration of half-maximal effect
Details: P. falciparum in erythrocytes, SYBR Green DNA, 72 h; series mostly up to 28.7 µM
Results filed as inconclusive are left out. The source made the active and inactive calls. Calls come from the whole dose curve; as a rule, active = well fitted inhibition curve with a large enough effect; inconclusive = small, poorly fitted or top-dose-only effect; inactive = flat fitted curve, though single readings scatter.
property: Potency

compound="CC(O)C1CCC2C3CCC4CC(O)CCC4(C)C3CCC12C (centres undefined)" property=Potency readoutvalue=inactive
compound="COC(c1ccccc1)(c1ccccc1)C(Oc1nc(C)cc(C)n1)C(=O)O (centres undefined)" property=Potency readoutvalue=inactive
compound="C=C[C@@]1(C)C[C@H](OC(=O)CSC(C)(C)CNC(=O)[C@@H](N)C(C)C)[C@@]2(C)C(C)CC[C@@]3(CCC(=O)[C@@H]32)[C@H](C)[C@H]1O (some centres undefined)" property=Potency readoutvalue="3.98 µM (active)"
compound=CCN(CC)C(=O)Nc1ccc(OC[C@H](O)CNC(C)(C)C)c(C(C)=O)c1 property=Potency readoutvalue=inactive

###

Tested on: SC27B
Experiment: qHTS profiling for inhibitors of Plasmodium falciparum proliferation (AID 504749); note: nearly all actives have a fitted effect of over 60% in size; note: potency is the fitted concentration of half-maximal effect
Settings: P. falciparum in erythrocytes, SYBR Green DNA, 72 h; series mostly up to 28.7 µM
Records with an inconclusive call do not appear. Active and inactive are the calls of the source. The call rests on the fitted dose curve; in most records, active means well fitted inhibition curve with a large enough effect; inconclusive means small, poorly fitted or top-dose-only effect; inactive means flat fitted curve, though single readings scatter.
property: Potency

Answered cases to consult:
compound=CO/N=C(/C(=O)N[C@@H]1C(=O)N2C(C(=O)O)=C(CSc3cnns3)CS[C@H]12)c1csc(N)n1 readoutvalue=inactive
compound="Cc1ccc(/C=C2/C(=O)C3(C)CCC2C3(C)C)cc1 (centres undefined)" readoutvalue=inactive
compound=Nc1nc(F)nc2c1ncn2[C@@H]1O[C@H](CO)[C@@H](O)[C@H]1O readoutvalue=inactive
compound=CC(C)C[C@@H](NC(=O)[C@@H](Cc1ccccc1)NC(=O)c1cnccn1)B(O)O readoutvalue="141 nM (active)"
compound="COc1cc2c(cc1O)CCN[C@@]21CS[C@H]2c3c(OC(C)=O)c(C)c4c(c3C(COC1=O)N1C2C2c3c(cc(C)c(OC)c3O)CC([C@@H]1O)N2C)OCO4 (some centres undefined)" readoutvalue="0.8 nM (active)"
compound="Cc1c(C)c2c(c(C)c1O)CCC(C)(CCCC(C)CCCC(C)CCCC(C)C)O2 (centres undefined)" readoutvalue=inactive
compound="CC(=O)OCC(=O)[C@@]1(O)CCC2C3C[C@H](C)C4=CC(=O)C=CC4(C)C3C(O)CC21C (some centres undefined)" readoutvalue=inactive
compound="CO[C@H]1OC2O[C@@]3(C)CC[C@H]4[C@H](C)CC[C@@H]([C@H]1C)[C@@]24OO3 (some centres undefined)" readoutvalue="14.1 nM (active)"

Bench note: what Potency did OCC(O)C(O)C(O)C(O)CO (centres undefined) show?
inactive

###

Tested on: DIV14
Assay: qHTS profiling for inhibitors of Plasmodium falciparum proliferation (AID 504749); note: nearly all actives have a fitted effect of over 60% in size
Conditions: P. falciparum in erythrocytes, SYBR Green DNA, 72 h; series mostly up to 28.7 µM
Results filed as inconclusive are left out. Activity calls are given as the source filed them. The call rests on the fitted dose curve; in most records, active means well fitted inhibition curve with a large enough effect; inconclusive means small, poorly fitted or top-dose-only effect; inactive means flat fitted curve, though single readings scatter.
Just give me one of these, please: 1.0 (active), 0.0 (inactive)

These recorded examples may help you get a feel for the data.
compound="OCCOC[C@H]1O[C@H](OCCO)[C@H](OCCO)[C@@H](OCCO)[C@@H]1OCCO (tested in a mixture with another compound)" category=0.0
compound="O=c1ccn(C2OC(COP(=O)(O)OC3C(CO)OC(n4ccc(=O)[nH]c4=O)C3O)C(O)C2O)c(=O)[nH]1 (stereo not given)" category=0.0
compound="O=C(O)C(O)c1ccccc1 (stereo not given)" category=0.0
compound="CC(=O)OCC(=O)[C@@]1(O)CCC2C3CCC4=CC(=O)C=CC4(C)C3C(O)C[C@]21C (stereo not given in full)" category=0.0

Now look at this entry.
Would you mind telling me which call this test gave Cc1c(C)c2c(c(C)c1O)CCC(C)(CCCC(C)CCCC(C)CCCC(C)C)O2 (stereo not given) ?
0.0

###

Molecular target: Cytochrome P450 2C19 (Homo sapiens)
Test: qHTS Assay for Inhibitors and Substrates of Cytochrome P450 2C19 (AID 899); note: nearly all actives have a fitted effect of over 60% in size
Settings: recombinant CYP2C19, luciferin-H EGE luminescence; series mostly up to 57.1 µM
Results filed as inconclusive are left out. Calls of active or inactive are those of the source. Calls come from the whole dose curve; as a rule, active = well fitted inhibition curve with a large enough effect; inconclusive = small, poorly fitted or top-dose-only effect; inactive = no such curve, though single readings can be large or run the other way.
Just give me one of these, please: 1 (yes) (active), 0 (no) (inactive)

These recorded examples may help you get a feel for the data.
molecule=COC(=O)[C@@]1(Cc2ccc(OC)cc2)[C@H]2c3cc(C(=O)N4CCCC4)n(Cc4cc(F)cc5c4OCOC5)c3C[C@H]2CN1C(=O)c1ccccc1 category="1 (yes)"
molecule=C#CCN1C(C)=C(C(=O)OC)[C@@H](c2cccc([N+](=O)[O-])c2)C(C(=O)OCC)=C1C category="1 (yes)"
molecule=CC(C)[C@@H](CC(=O)N[C@@H]1CCNC[C@H]1C(=O)N[C@H](CC(=O)N[C@@H](CCC(=O)O)CC(=O)O)Cc1ccccc1)NC(=O)C[C@H](Cc1c[nH]c2ccccc12)NC(=O)[C@@H]1CNCC[C@H]1N category="0 (no)"
molecule=c1ccc2c(c1)Cc1cc3cc4c(cc3nc1-2)OCO4 category="1 (yes)"
molecule=COc1cccc(-c2cc(=O)c3cc(O)ccc3o2)c1 category="1 (yes)"

Would you mind telling me which call this test gave COc1ccc2nc3c(cc2c1)Cc1ccccc1-3 ?
1 (yes)

Would you mind telling me which call this test gave CCCC[C@@H]1C[C@H]1C(NC(=O)Cc1ccccc1)c1ccc(Cl)cc1 (some centres undefined) ?
1 (yes)

Would you mind telling me which call this test gave CCC/C=C(\CCC)C(NS(=O)(=O)c1ccc(C(F)(F)F)cc1)c1ccccc1 (centres undefined) ?
1 (yes)

###

Assay: Stat Signaling Pathway (AID 446);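 note: ME-180 cervical cancer cells given 40 pM IL-6 alongside compound; SIE-controlled beta-lactamase reporter measured as 460/530 nm FRET emission ratio; % is set by controls: 0 for no effect and ±100 for the full control effect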
Settings: ME-180 (cervical carcinoma) SIE beta-lactamase reporter, IL-6 stimulated, 5 h; at 17.2 µM (top of the series) unless noted
Inconclusive results are not listed.
property: activity, negative = inhibition (%)
Numeric answer only, unit % assumed.

compound="CCOC(=O)C(C)c1nc2ccccc2[nH]c1=O (stereo unspecified)" readoutvalue=4.12

Bench note: what activity, negative = inhibition did N#CC1=C(N)OC2=C(C(=O)CCC2)C1CCc1ccccc1 (stereo unspecified) show?
8.87

Bench note: what activity, negative = inhibition did CCCc1[nH]nc2c1C(c1c(C)nn(-c3ccccc3)c1Cl)C(C#N)=C(N)O2 (stereo unspecified) show?
-29.6

###

// reported activity change, negative = inhibition per item
Assay: NFAT Signaling Pathway (AID 444);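 note: carbachol stimulus at about its EC50 of 1 µM final; % is set by controls: 0 for no effect and ±100 for the full control effect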
Conditions: Jurkat NFAT-bla M1, carbachol, beta-lactamase ratio, 5 h; at 17.2 µM (top of the series) unless noted
Inconclusive results are not listed.
Numeric answer only, unit % assumed.

molecule="CC12CCC(C(=O)N(CCC#N)CCC#N)(CC1=O)C2(C)C (centres undefined)" readoutvalue=18.9
molecule="CCCOc1cccc(C2/C(=C(/O)c3ccccc3)C(=O)C(=O)N2CCN(C)C)c1 (centres undefined)" readoutvalue=24.1
molecule="Cc1ccc2[nH]c3c(c2c1)CCCC3C(N)=O (centres undefined)" readoutvalue=-1.59
molecule=COc1ccc2c(c1)[nH]c1c(=O)n(CCN(C)C)cnc12 readoutvalue=15.2
molecule=CC(C)(C#N)C(C)(C)c1nn[nH]n1 readoutvalue=0.881

For the next question, use this molecule.
Bench note: what activity change, negative = inhibition did CC1(C)Cc2c(C#N)c(N3CCOCC3)nc(Cc3ccccc3)c2CO1 show?
-28.9

###

Test: Cell Viability - Mesenchymal (AID 546);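 note: cells exposed to compound for 40 hours before reading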
Details: mesenchymal cells viability, qHTS
Inconclusive results are not listed. Calls of active or inactive are those of the source. Calls follow the shape of the dose curve; as a rule, active = well fitted cell-killing curve with a large enough effect; inconclusive = small, poorly fitted or top-dose-only effect; inactive = flat fitted curve, though single readings scatter.
Just give me one of these, please: T for active, F for inactive

compound=O=C(OCC(COC(=O)c1ccccc1)(COC(=O)c1ccccc1)COC(=O)c1ccccc1)c1ccccc1 category=F
compound=CC(=O)Nc1ccc(C(=O)CCl)cc1 category=T
compound="CCC(C)Nc1ccc(NC(C)CC)cc1 (stereo not given)" category=T

Would you mind telling me which call this test gave C=C(C)c1ccccc1 ?
F

Would you mind telling me which call this test gave Cc1cc(O)c(C(C)(C)C)cc1Sc1cc(C(C)(C)C)c(O)cc1C ?
T

###

Assay: qHTS profiling for inhibitors of Plasmodium falciparum proliferation (AID 504749); note: nearly all actives have a fitted effect of over 60% in size;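 for activity, negative = inhibition: 0% = DMSO vehicle and full inhibition = artemisinin control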
Conditions: P. falciparum in erythrocytes, SYBR Green DNA, 72 h; at 28.7 µM (top of the series); parasite line B
Inconclusive results are not listed.
property: activity, negative = inhibition (%)
Numeric answer only, unit % assumed.

molecule=O=C(O)c1ccc(N[C@@H]2OC[C@@H](O)[C@@H](O)[C@@H]2O)cc1 readoutvalue=9.05
molecule="CCN1CCN(C(=O)NC(C(=O)NC2C(=O)N3C(C(=O)O)=C(CSc4nnnn4C)CSC23)c2ccc(O)cc2)C(=O)C1=O (configuration not stated)" readoutvalue=-9.29
molecule=C=C1C(=O)O[C@@H]2[C@@H]1CC/C(C)=C\CC[C@@]1(C)O[C@H]21 readoutvalue=-27.2
molecule=Cc1ccc(Nc2ncccc2C(=O)O)cc1C readoutvalue=7.72
molecule="C/C1=C2/[N-]C(C(CC(N)=O)[C@@]2(C)CCC(=O)NCC(C)OP(=O)([O-])O[C@H]2[C@@H](O)[C@@H](n3cnc4cc(C)c(C)cc43)O[C@@H]2CO)[C@]2(C)N=C(/C(C)=C3N=C(/C=C4N=C1C(CCC(N)=O)C\\4(C)C)[C@@H](CCC(N)=O)[C@]\\3(C)CC(N)=O)[C@@H](CCC(N)=O)[C@]2(C)CC(N)=O.CC(=O)O.[Co] (some centres not stated)" readoutvalue=-2.9

Bench note: what activity, negative = inhibition did C/C(=C(/CCO)SS/C(CCO)=C(\C)N(C=O)Cc1cnc(C)nc1N)N(C=O)Cc1cnc(C)nc1N show?
-3.11

Bench note: what activity, negative = inhibition did O=[N+]([O-])O[C@H]1CO[C@H]2[C@@H]1OC[C@H]2O show?
-1.17

Bench note: what activity, negative = inhibition did Cc1ccccc1N1C(=O)c2cc(N)ccc2N/C1=C\F show?
-18.2

Bench note: what activity, negative = inhibition did Oc1cc2cc(CCN3CCN(c4nsc5ccccc45)CC3)c(Cl)cc2[nH]1 show?
-29.2

Bench note: what activity, negative = inhibition did OCC1O[C@H](Oc2ccc(O)cc2)C(O)C(O)C1O (some centres not stated) show?
1.5

Bench note: what activity, negative = inhibition did CC(=O)NC[C@@H]1CN(c2ccc(N3CCOCC3)c(F)c2)C(=O)O1 show?
-9.57

Bench note: what activity, negative = inhibition did NCCCCC(N)C(=O)O (configuration not stated) show?
13.6
